Reference source for all entries: patent US20260364213A1

SUBJECT_OF_TEST: eDHFR-YFP (Escherichia coli, UniProt P0ABQ4)
EXPERIMENT: Radioligand binding to eDHFR-YFP expressing cells
Parameters: species or system E. coli
ASSAY_SETUP: I45 cells; read-out: Kd
Description: Due to the high specific activity of [^211At]At-TMP that limits its working concentration to pM range, [^125I]I-TMP was used for saturation binding studies to determine Bmax. eDHFR-YFP-positive I45 and SKOV3 cells were plated on 96-well plates (Corning #9102) at the density of 25,000 cells/well and 40,000 cells/well, respectively, in complete growth media 24 hours before the assay. […] The radioactivity in each well was measured with a Perkin Elmer Wizard gamma counter. […]
pKd: −log10 of the molar value.
METRIC: pKd

>>> endpoint_result("COc1cc(Cc2cnc(N)nc2N)cc([125I])c1OC [[^125I]mI-TMP]")
9.19

---

SUBJECT_OF_TEST: eDHFR-YFP (Escherichia coli)
EXPERIMENT: Radioligand binding to eDHFR-YFP expressing cells
Design: species or system E. coli
ASSAY_SETUP: Kd, I45 and SKOV3 cells
METRIC: Kd

>>> endpoint_result("COc1cc(Cc2cnc(N)nc2N)cc([At])c1OC [[^211At]At-TMP]")
"2.5 to 4.8 nM"

---

SUBJECT_OF_TEST: eDHFR-YFP (Escherichia coli)
EXPERIMENT: Radioligand binding to eDHFR-YFP expressing cells
Design: species or system E. coli
ASSAY_SETUP: Kd, SKOV3 cells
pKd: −log10 of the molar value.
METRIC: pKd

>>> endpoint_result("COc1cc(Cc2cnc(N)nc2N)cc([At])c1OC [[^211At]At-TMP]")
8.60
